tested on: E. faecium VRE; assay: Broth microdilution MIC, VRE clinical strain; assay type: cell-based; details: Enterococcus faecium
Field: MIC. Provide a value for each of the molecules that follow.
Numbers only, in µg/mL.

Example entries begin here.
molecule="CC(C)NC(=N)c1ccc2[nH]c(-c3ccc(OCc4cn(-c5ccccc5Cl)nn4)cc3)nc2c1.Cl.Cl [Compound 8c]" numeric_value=32
molecule="COc1ccc(-n2cc(COc3ccc(-c4nc5cc(C(=N)NC(C)C)ccc5[nH]4)cc3)nn2)cc1.Cl.Cl [Compound 8b]" numeric_value=128
molecule="Cl.Cl.N=C(N)c1ccc2[nH]c(-c3ccc(OCc4cn(-c5ccccc5Cl)nn4)cc3)nc2c1 [Compound 7c]" numeric_value=256
molecule="Cl.Cl.N=C(N)c1ccc2[nH]c(-c3ccc(OCc4cn(CSc5ccccc5)nn4)cc3)nc2c1 [Compound 7e]" numeric_value=64
molecule="c1ccc(-n2cc(COc3ccc(-c4nc5cc(C6=NCCN6)ccc5[nH]4)cc3)nn2)cc1 [Compound 9a]" numeric_value=128

Hi, could you look up MIC for each item in my list?
1. Cl.Cl.Clc1ccccc1-n1cc(COc2ccc(-c3nc4cc(C5=NCCN5)ccc4[nH]3)cc2)nn1 [Compound 9c]
2. CC(C)NC(=N)c1ccc2[nH]c(-c3ccc(OCc4cn(Cc5ccccc5)nn4)cc3)nc2c1 [Compound 8d]

Ans:
1: 64; 2: 64

---

test system: polyA-polyU; test: Thermal melting (ΔTm) of polyA-polyU; assay type: binding; details: r = 0.1; PBS, pH 7
Would you mind telling me the reported ΔTm, polyA-polyU, r = 0.1 of each entry?
One number for each entry, in °C.

given_smiles=CC(C)NC(=N)c1ccc2[nH]c(-c3ccc(OCc4cn(-c5ccccc5Cl)nn4)cc3)nc2c1.Cl.Cl numeric_value=0.76
given_smiles=CC(C)NC(=N)c1ccc2[nH]c(-c3ccc(OCc4cn(Cc5ccccc5)nn4)cc3)nc2c1 numeric_value=0.91
given_smiles=c1ccc(Cn2cc(COc3ccc(-c4nc5cc(C6=NCCN6)ccc5[nH]4)cc3)nn2)cc1 numeric_value=1.26
given_smiles=Cl.Cl.c1ccc(SCn2cc(COc3ccc(-c4nc5cc(C6=NCCN6)ccc5[nH]4)cc3)nn2)cc1 numeric_value=1.11
given_smiles=CC(C)NC(=N)c1ccc2[nH]c(-c3ccc(OCc4cn(CSc5ccccc5)nn4)cc3)nc2c1.Cl.Cl numeric_value=0.52

# context switch: different compound, same ΔTm, polyA-polyU, r = 0.1
Q: Look up polyA-polyU data: ΔTm, polyA-polyU, r = 0.1 of N=C(N)c1ccc2[nH]c(-c3ccc(OCc4cn(-c5ccccc5)nn4)cc3)nc2c1 , then report it.
Ans: 1.74

---

System: E. faecium VRE
Assay: Broth microdilution MIC, VRE clinical strain
Assay type: cell-based
Details: Enterococcus faecium
Procedure: The compounds were evaluated for their in vitro anti-bacterial activity against Gram-positive bacteria: S. aureus (ATCC 25923), MRSA, methicillin-sensitive S. aureus (MSSA), E. faecalis, vancomycin-resistant E. faecium (VREF), and Gram-negative bacteria: E. coli (ATCC 25925), P. aeruginosa (ATCC 27853), A. baumannii (ATCC 19606) and ESBL-producing K. pneumoniae (ATCC 27736). […]
measured-endpoint: MIC (µg/mL)
One number for each entry, in µg/mL.

Study these solved cases before continuing.
compound=N=C(N)c1ccc2[nH]c(-c3ccc(OCc4cn(-c5ccccc5)nn4)cc3)nc2c1 numeric_value=32
compound=CC(C)NC(=N)c1ccc2[nH]c(-c3ccc(OCc4cn(-c5ccccc5)nn4)cc3)nc2c1 numeric_value=128
compound="CNC(C)C1CCC(N)C(OC2C(N)CC(N)C(OC3OCC(C)(O)C(NC)C3O)C2O)O1 (stereo not shown) [Gentamicin, gentamicin, reference compound]" numeric_value=0.25
compound=Cl.Cl.c1ccc(SCn2cc(COc3ccc(-c4nc5cc(C6=NCCN6)ccc5[nH]4)cc3)nn2)cc1 numeric_value=32
compound=c1ccc(Cn2cc(COc3ccc(-c4nc5cc(C6=NCCN6)ccc5[nH]4)cc3)nn2)cc1 numeric_value=64

Look at each compound and report its MIC.
1. CC(C)NC(=N)c1ccc2[nH]c(-c3ccc(OCc4cn(CSc5ccccc5)nn4)cc3)nc2c1.Cl.Cl
2. COc1ccc(-n2cc(COc3ccc(-c4nc5cc(C6=NCCN6)ccc5[nH]4)cc3)nn2)cc1.Cl.Cl
3. N=C(N)c1ccc2[nH]c(-c3ccc(OCc4cn(Cc5ccccc5)nn4)cc3)nc2c1
4. CC1(C)S[C@@H]2[C@H](NC(=O)[C@H](N)c3ccccc3)C(=O)N2[C@H]1C(=O)O [Ampicillin, ampicillin, reference compound]
5. COc1ccc(-n2cc(COc3ccc(-c4nc5cc(C(=N)N)ccc5[nH]4)cc3)nn2)cc1.Cl.Cl

Ans:
1. 64
2. 256
3. 32
4. 1
5. 256

The reported numbers originate from paper PMC6127852.
